assay_target: GST-Chk1 enzyme (Homo sapiens, UniProt O14757)
Sequence (O14757 whole entry): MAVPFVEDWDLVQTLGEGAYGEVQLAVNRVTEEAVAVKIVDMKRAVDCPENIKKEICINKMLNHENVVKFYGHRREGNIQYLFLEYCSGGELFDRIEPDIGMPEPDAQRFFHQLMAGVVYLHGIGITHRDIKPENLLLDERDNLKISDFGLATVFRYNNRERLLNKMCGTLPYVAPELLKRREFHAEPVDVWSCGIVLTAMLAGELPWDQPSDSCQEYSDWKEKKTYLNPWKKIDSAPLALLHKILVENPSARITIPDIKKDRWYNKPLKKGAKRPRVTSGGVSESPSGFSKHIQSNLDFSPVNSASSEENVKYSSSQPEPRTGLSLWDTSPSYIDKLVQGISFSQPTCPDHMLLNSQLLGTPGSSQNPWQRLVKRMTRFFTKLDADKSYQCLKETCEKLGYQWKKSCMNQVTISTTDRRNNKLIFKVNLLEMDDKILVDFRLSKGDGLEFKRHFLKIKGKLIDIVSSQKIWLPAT
protocol_description: Chk1 kinase inhibition assay (33P phosphorylation of Chktide, filter plate)
Assay type: biochemical
condition_label: Chk1 IC50(μM), 0.01 mM ATP, 11 nM GST-Chk1, 40 minutes at 30° C.
endpoint_label: IC50

What does the record list as IC50 for CS(=O)(=O)c1ccc(Nc2cc(Cl)nc3ccnn23)cc1 [Example 15] ?
> 200 µM

* * *

Form field: pIC50 (one value per entry).
assay_target: PDK1 enzyme (Homo sapiens, UniProt O15530)
Sequence (O15530 1-556): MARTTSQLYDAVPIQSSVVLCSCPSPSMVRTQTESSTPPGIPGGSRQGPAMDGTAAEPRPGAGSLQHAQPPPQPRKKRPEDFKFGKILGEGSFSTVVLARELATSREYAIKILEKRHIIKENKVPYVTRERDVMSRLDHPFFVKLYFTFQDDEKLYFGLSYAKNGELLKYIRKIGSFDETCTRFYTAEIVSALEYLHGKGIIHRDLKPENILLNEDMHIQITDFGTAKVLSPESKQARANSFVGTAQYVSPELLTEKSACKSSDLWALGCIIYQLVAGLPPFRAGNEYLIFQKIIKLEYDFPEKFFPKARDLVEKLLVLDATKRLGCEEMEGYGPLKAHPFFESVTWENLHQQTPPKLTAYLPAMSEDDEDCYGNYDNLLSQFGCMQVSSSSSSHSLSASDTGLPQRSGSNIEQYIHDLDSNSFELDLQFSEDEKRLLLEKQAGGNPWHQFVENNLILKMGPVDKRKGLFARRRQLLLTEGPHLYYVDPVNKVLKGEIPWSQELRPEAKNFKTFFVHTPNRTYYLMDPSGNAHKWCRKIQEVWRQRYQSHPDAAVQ
protocol_description: PDK1 kinase inhibition assay (33P phosphorylation of synthetic peptide, filter plate)
Format: biochemical
condition_label: 0.01 mM ATP, 60 min at 30° C.; read-out: PDK1 IC50
pIC50: −log10 of the molar value.

Some entries whose results are on file:
INSERT INTO results (structure, reported) VALUES
  ('CN1CCN(S(=O)(=O)c2ccc(Nc3cc(Cl)nc4c(Br)cnn34)cc2)CC1', '< 4.30'),
  ('CC(C)c1cnn2c(Nc3ccc(S(=O)(=O)N(C)C)cc3)cc(N3CCC(C(=O)O)CC3)nc12', '< 3.70');

What does the record list as pIC50 for `CN(C)S(=O)(=O)c1ccc(Nc2cc(Cl)nc3c(C4CC4)cnn23)cc1` ?
4.53

What does the record list as pIC50 for `CC(C)c1cnn2c(Nc3ccc(S(=O)(=O)N(C)C)cc3)cc(N[C@H]3CC[C@H](NC(=O)CN(C)C)CC3)nc12` ?
< 3.70

What does the record list as pIC50 for `CC(C)COc1cc(Nc2ccc(S(=O)(=O)N(C)CCN(C)C)cc2)n2ncc(C(C)C)c2n1` ?
< 3.70

What does the record list as pIC50 for `CN(C)S(=O)(=O)c1cccc(Nc2cc(Cl)nc3c(Br)cnn23)c1` ?
< 3.70

What does the record list as pIC50 for `CC(C)c1cnn2c(Nc3ccc(S(=O)(=O)N(C)C)cc3)cc(NCC(C)(C)CN(C)C)nc12` ?
4.84

What does the record list as pIC50 for `CN(C)S(=O)(=O)c1ccc(Nc2cc(N[C@H]3CC[C@H](N)CC3)nc3c(-c4ccsc4)cnn23)cc1` ?
< 3.70

What does the record list as pIC50 for `CCc1cnn2c(Nc3ccc(S(C)(=O)=O)cc3)ccnc12` ?
< 3.70

What does the record list as pIC50 for `CS(=O)(=O)c1ccc(Nc2cc(Cl)nc3c(Br)cnn23)cc1` ?
< 4.30

What does the record list as pIC50 for `O=S(=O)(Nc1nccs1)c1ccc(Nc2cc(OC3CCCCC3)nc3ccnn23)cc1` ?
4.61

What does the record list as pIC50 for `COCCNS(=O)(=O)c1ccc(Nc2cc(Cl)nc3c(C(C)C)cnn23)cc1` ?
< 3.70

What does the record list as pIC50 for `CC(C)c1cnn2c(Nc3ccc(S(=O)(=O)N(C)C)cc3)cc(N3CCN(CC4CCN(C)CC4)CC3)nc12` ?
< 3.70
